All figures here come from paper PMC12207590.

Target: MATE1 (Homo sapiens)
Sequence (Q96FL8 1-570): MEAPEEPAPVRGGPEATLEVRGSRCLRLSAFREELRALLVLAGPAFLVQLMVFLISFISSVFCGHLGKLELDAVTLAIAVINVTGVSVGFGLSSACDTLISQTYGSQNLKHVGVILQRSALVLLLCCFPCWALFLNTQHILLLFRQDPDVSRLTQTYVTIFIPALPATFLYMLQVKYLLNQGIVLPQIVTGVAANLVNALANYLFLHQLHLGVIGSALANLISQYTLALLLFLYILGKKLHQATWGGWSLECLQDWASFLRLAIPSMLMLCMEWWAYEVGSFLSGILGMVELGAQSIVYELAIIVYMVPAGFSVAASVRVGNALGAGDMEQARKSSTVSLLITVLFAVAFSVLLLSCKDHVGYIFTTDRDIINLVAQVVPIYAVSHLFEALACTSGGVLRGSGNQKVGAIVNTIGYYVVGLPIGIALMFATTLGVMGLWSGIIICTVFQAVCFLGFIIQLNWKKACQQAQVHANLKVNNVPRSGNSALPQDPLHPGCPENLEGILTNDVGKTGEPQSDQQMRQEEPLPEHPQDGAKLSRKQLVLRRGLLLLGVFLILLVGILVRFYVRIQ
Assay: Uptake ratio in MATE1-overexpressing HEK293 cells vs empty vector (2.5 μM, 1 min, HPLC-MS/MS)
Assay type: cell-based
Details: fold uptake over empty vector, 2.5 μM, 1 min
Doc: threshold 10 (exclusive). Items with MATE1 ratio beneath it return criterion met; others return criterion not met.

The following compounds have reported results that may help.
1) CC(CCc1ccc(O)cc1)NCCc1ccc(O)c(O)c1 (stereo not drawn) [Dobutamine] ... criterion not met
2) COc1ccc(OC)c(C(O)CNC(=O)CN)c1 (stereo not drawn) [Midodrine] ... criterion met
3) COc1ccc(CC(C)(C)NC[C@H](O)c2cc(O)cc3c2OCC(=O)N3)cc1 [Olodaterol] ... criterion met
4) CNC(=C[N+](=O)[O-])NCCSCc1csc(CN(C)C)n1 [Nizatidine] ... criterion not met
5) CCN1CCCC1CNC(=O)c1cc(S(=O)(=O)CC)c(N)cc1OC (stereo not drawn) [Amisulpride] ... criterion not met
6) Cc1nccn1CC1CCc2c(c3ccccc3n2C)C1=O (stereo not drawn) [Ondansetron] ... criterion met

Consider NC(=O)C1(N2CCCCC2)CCN(CCCC(=O)c2ccc(F)cc2)CC1 [Pipamperone] . Does its MATE1 ratio lie strictly below 10?
criterion met

Repeat with O=C(O[C@H]1C[N+]2(CCCOc3ccccc3)CCC1CC2)C(O)(c1cccs1)c1cccs1 [Aclidinium (S), Aclidinium]
criterion met

Repeat with CCc1nc(N)nc(N)c1-c1ccc(Cl)cc1 [Pyrimethamine]
criterion met

====

Biological target: MATE1 (Homo sapiens)
Sequence (Q96FL8 1-570): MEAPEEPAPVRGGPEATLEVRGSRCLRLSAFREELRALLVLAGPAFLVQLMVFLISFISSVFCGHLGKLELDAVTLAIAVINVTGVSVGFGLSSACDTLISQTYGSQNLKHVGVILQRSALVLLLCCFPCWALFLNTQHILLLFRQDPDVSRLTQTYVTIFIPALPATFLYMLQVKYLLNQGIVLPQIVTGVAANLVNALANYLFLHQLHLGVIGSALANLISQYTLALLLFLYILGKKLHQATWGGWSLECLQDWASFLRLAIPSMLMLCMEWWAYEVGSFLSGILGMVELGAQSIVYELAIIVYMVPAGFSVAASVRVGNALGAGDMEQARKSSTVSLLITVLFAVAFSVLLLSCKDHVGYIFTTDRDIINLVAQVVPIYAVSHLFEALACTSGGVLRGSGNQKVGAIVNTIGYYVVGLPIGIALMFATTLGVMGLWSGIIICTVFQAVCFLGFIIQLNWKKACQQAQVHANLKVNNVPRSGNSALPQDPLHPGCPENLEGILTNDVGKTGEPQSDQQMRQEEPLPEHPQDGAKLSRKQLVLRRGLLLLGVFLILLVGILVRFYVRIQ
Test: Uptake ratio in MATE1-overexpressing HEK293 cells vs empty vector (2.5 μM, 1 min, HPLC-MS/MS)
Assay type: cell-based
Conditions: mean ratio of uptake in MATE1-overexpressing HEK293 cells vs empty vector; 2.5 μM, 1 min
Please enter condition met where MATE1 (uptake ratio) is greater than or equal to 1, and condition not met where it is lower.

1) Cc1ccc(C23CNCC2C3)cc1 (centres unmarked) ... condition met
2) CC(C)(C)NCC(O)COc1ccccc1C#N (centres unmarked) ... condition met
3) O=C1CCc2ccc(OCCCCN3CCN(c4cccc(Cl)c4Cl)CC3)cc2N1 ... condition met

Say whether Clc1cccc(Cl)c1N=C1NCCN1 shows MATE1 (uptake ratio) of 1 or more.
condition met

Repeat with C=CCN1CCCC1CNC(=O)c1cc2nn[nH]c2cc1OC (centres unmarked) [Alizapride]
condition met

Repeat with OC(CCN1CCCCC1)(c1ccccc1)C1CC2C=CC1C2 (centres unmarked)
condition met

Repeat with NCCCCN=C(N)N
condition met
